Measured z-score accompanies every entry in the list below.
- procedure_summary: E. coli acrAB mutant growth effects, primary screen, E. coli filamentation inducers, strain DRC39, OD650, 24 h (AID 1178);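 note: growth measured as culture turbidity by optical density at 650 nm; test concentration not given here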
- measurement_parameters: higher = more signal, called active from +8 up or from −8 down
// return just the number, without any unit appended

A selection of reference data follows.
CCC1=C2CN(Cc3ccccc3Br)[C@@H]([C@@H](O)Cc3ccccc3)C2C=CCC1 (stereo partly drawn) : 1
O=C(O)[C@@H]1Cc2c([nH]c3ccccc23)[C@@H](c2ccccc2)N1 : -0.266
CO[C@@H]1COC(=O)[C@@H]2CCCN2C(=O)CC=C[C@@H](C)[C@H](OC)COC(=O)[C@@H]2CCCN2C(=O)CC=C[C@H]1C : 1.65
COc1cc(CO)cc(I)c1O[C@H]1C=C(C(=O)NCCO)C[C@@H](N(CC2CCCCC2)C(=O)c2cc3ccccc3oc2=O)[C@@H]1O : 0.663
O=C1C2C=CC(C(O)Cc3ccccc3)N(Nc3ccc([N+](=O)[O-])cc3)C2C(=O)N1c1ccccc1 (stereo not drawn) : -1.22

Please look at the following compound next.
Given `COCCOC(=O)N1C(=O)[C@@]2(c3cc(C#CCC(C(=O)OC)C(=O)OC)ccc31)[C@H](C(=O)N1CCN(c3ncccn3)CC1)[C@H]1C(=O)O[C@H](c3ccccc3)[C@H](c3ccccc3)N1[C@@H]2c1ccc(O)cc1` , state its recorded z-score.
0.535
